Known MIC of a selection of compounds
# Tested on: E. coli ATCC 25922
# test: MIC assay, CLSI broth microdilution, E. coli ATCC 25922 (AECO001)
# Type: cell-based
# settings: Escherichia coli; AECO001 is ATCC25922; 35° C., 20 hours; read-out: MIC AECO001
observable: MIC

[[record]]
chemical_smiles = "CN[C@@H]1[C@@H](O)[C@@H](O[C@@H]2[C@@H](O)[C@H](O[C@H]3OC(CNCCO)=CC[C@H]3N)[C@@H](N)C[C@H]2NC(=O)[C@@H](O)CN)OC[C@]1(C)O"
observable = "MIC"
value_reported = "< 1 µg/mL"

[[record]]
chemical_smiles = "CN[C@@H]1[C@@H](O)[C@@H](O[C@@H]2[C@@H](O)[C@H](O[C@H]3OC(CN)=CC[C@H]3NC3CNC3)[C@@H](N)C[C@H]2NC(=O)[C@@H](O)CCN)OC[C@]1(C)O"
observable = "MIC"
value_reported = "< 1 µg/mL"

[[record]]
chemical_smiles = "CN[C@@H]1[C@@H](O)[C@@H](O[C@@H]2[C@@H](O)[C@H](O[C@H]3OC(CN)=CC[C@H]3NC(=N)N)[C@@H](N)C[C@H]2NC(=O)[C@@H](O)CCN)OC[C@]1(C)O"
observable = "MIC"
value_reported = "< 1 µg/mL"

